Reference source: the kinase profiling compilation of Christmann-Franck et al. (2016)

- target-entity: PRKAA2 (human) (UniProt P54646)
- Sequence (P54646 whole entry, looked up): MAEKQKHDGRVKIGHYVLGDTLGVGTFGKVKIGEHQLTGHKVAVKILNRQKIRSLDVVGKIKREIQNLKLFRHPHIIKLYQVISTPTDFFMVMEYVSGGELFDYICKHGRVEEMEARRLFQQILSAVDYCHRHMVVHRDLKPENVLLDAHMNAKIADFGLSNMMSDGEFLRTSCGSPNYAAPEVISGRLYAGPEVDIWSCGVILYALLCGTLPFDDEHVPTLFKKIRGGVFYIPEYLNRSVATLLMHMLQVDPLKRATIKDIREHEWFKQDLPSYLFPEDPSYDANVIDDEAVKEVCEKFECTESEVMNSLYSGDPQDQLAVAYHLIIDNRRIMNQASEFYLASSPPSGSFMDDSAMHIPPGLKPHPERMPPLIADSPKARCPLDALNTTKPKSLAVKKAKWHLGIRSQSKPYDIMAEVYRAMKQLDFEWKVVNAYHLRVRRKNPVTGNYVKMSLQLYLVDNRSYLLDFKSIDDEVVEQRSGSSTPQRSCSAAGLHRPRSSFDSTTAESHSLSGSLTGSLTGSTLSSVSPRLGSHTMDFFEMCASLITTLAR
- procedure-details: KINOMEscan competition binding
- measurement-parameters: compound 10.0 µM
Parameter: kinase still bound, per cent of control. Scope: all listed entries.
readout-kind: kinase still bound, per cent of control (%)

[
  {
    "structure": "CN(C)C/C=C/C(=O)Nc1cccc(Nc2ncc3c(n2)N(C)c2ccccc2C(=O)N3C)c1",
    "meas-value": 1.4
  },
  {
    "structure": "N#Cc1c(NC(=O)c2cccc3ccccc23)sc2c1CCCC2",
    "meas-value": 84
  },
  {
    "structure": "CCOc1cc2ncc(C#N)c(Nc3ccc(OCc4ccccn4)c(Cl)c3)c2cc1NC(=O)/C=C/CN(C)C",
    "meas-value": 80
  },
  {
    "structure": "Cn1c(=O)n(-c2ccc(C(C)(C)C#N)cc2)c2c3cc(-c4cnc5ccccc5c4)ccc3ncc21",
    "meas-value": 100
  },
  {
    "structure": "Nc1ccc(-c2ccc3ncc4ccc(=O)n(-c5cccc(C(F)(F)F)c5)c4c3c2)cn1",
    "meas-value": 95
  }
]
